System: HIV-1 strains (SKI, RF, DV, IIIB, ADP/141)
Protocol notes: microbe, parasite or virus in culture
Format: cell-based
Measurement conditions: Human immunodeficiency virus 1, IIIB, SUP-T1, read-out: IC50 virus production, HIV-1 DV, SUP T1
Measurement kind: pIC50
One number for each entry, as −log10 of the molar value.

IN: Quick one: pIC50 for "Cc1cn([C@H]2C[C@H](N=[N+]=[N-])[C@@H](CO)O2)c(=O)[nH]c1=O" ?
OUT: 7.52

====

Tested target: recombinant HIV-1 integrase (wild-type) (Human immunodeficiency virus type 1 group M subtype B)
Protocol notes: HIV-1 integrase 3′-processing and strand transfer assays
Format: biochemical
Design: Purified recombinant HIV-1 integrase enzyme (wild-type) was a generous gift from Dr. R. Craigie; purchased gift of Dr. R. Craigie, Laboratory of Molecular Biology, NIDDK (not bought)
Measurement conditions: read-out: IC50 3′-PROC
Measurement kind: IC50 (nM)
One number for each entry, in nM.

IN: Looking for the measured IC50 of 5′-gggtgggtgggtgggt-3′ [T30695] , can you help?
OUT: 43
